Molecular target: T1, C-terminally FLAG-tagged human Gas6 recombinant protein (hGas6-F) (human, UniProt Q14393 31-678, gamma-carboxylated glutamic acid residues in the Gla domain (producer cells co-express rat VKOR and human GGCX); positions not given)
T1 construct: also called human Gas6-F; human Gas6 protein
T1 sequence: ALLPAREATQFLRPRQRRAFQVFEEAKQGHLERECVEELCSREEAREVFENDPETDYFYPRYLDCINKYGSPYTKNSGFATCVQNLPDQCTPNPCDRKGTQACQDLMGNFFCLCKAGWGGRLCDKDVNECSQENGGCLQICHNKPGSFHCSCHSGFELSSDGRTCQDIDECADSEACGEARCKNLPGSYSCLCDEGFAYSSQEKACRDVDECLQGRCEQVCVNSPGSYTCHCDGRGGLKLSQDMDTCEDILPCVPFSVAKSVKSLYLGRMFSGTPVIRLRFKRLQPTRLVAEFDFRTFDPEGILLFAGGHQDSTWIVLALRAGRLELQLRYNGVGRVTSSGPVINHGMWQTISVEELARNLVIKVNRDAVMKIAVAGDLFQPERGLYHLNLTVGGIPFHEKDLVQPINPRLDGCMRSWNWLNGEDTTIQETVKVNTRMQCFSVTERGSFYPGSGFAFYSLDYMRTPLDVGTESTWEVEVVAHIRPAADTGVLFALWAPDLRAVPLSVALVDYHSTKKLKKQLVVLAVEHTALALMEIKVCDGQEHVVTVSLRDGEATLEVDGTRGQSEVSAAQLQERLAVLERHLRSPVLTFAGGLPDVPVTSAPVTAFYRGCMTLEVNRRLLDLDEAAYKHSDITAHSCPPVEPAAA
Test: SPR Biacore T100, captured antibody, Gas6 analyte, first test
Description: An anti-human IgG antibody was immobilized on a CM5 sensor chip (manufactured by GE Healthcare Japan Corp.) using Human Antibody Capture Kit (manufactured by GE Healthcare Japan Corp.) according to the attached manual. Each test antibody adjusted to 1 μg/mL was added for 10 seconds at a flow rate of 10 μL/min to flow cells. […] The obtained sensorgram was analyzed using Bia Evaluation Software (manufactured by GE Healthcare Japan Corp.), and the kinetic constant of each antibody was calculated.
property: koff (s⁻¹)
# output: bare number, implied unit s⁻¹

Some binders with recorded koff:
hzKM5320 LV5HV6 antibody (antibody, V domains shown, Humanized; variant human IgG4 constant region (EU S228P, L235E, R409K), human kappa; also called A-25) VH: QVQLVQSGPELKKPGASVKISCKASGYTFTNYGMNWVKQAPGQGLKWMGWINTETGEPTYSDDFKGRFVFSLDTSVSTAYLQISSLKAEDTATYFCAREDGYYGTLDYWGQGTTVTVSS VL: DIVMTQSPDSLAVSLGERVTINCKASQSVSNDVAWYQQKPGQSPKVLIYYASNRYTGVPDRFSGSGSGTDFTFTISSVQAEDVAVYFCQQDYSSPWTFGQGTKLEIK = 0.000147
hzKM5321 LV9HV7 antibody (antibody, V domains shown, Humanized; variant human IgG4 constant region (EU S228P, L235E, R409K), human kappa; also called B-21; LV9HV7) VH: QIHLVQSGPELKKPGASVKISCKASGYTFTNYGMNWVKQAPGQGLKWMGWINTNTGEPTYTEEFKGRFVFSLDTSVTTAYLQISTLKAEDTATYFCARDEGWFVYWGQGTLITVSS VL: ETTVTQSPSSLSVSTGDRVTITCITSTDIDDDMNWYQQKPGKPPKLLISEGNTLRPGVPSRFSSSGSGTDFTFTISSTQPEDFADYYCLQTDSVPLTFGQGTKLEIK = 0.000352
hzKM5321 LV6HV3b antibody (antibody, V domains shown, Humanized; variant human IgG4 constant region (EU S228P, L235E, R409K), human kappa; also called B-26; LV6HV3b) VH: QVHLVQSGSELKKPGASVKISCKASGYTFTNYGMNWVKQAPGQGLKWMGWINTNTGEPTYTEEFKGRFVFSLDTSVTTSYLQISTLKAEDTATYFCARDEGWFVYWGQGTLVTVSS VL: ETTLTQSPSSLSVSTGDRVTITCITSTDIDDDMNWYQQKPGKPPKLLISEGNTLRPGVPSRFSSSGSGTDFTLTISSTQPEDFADYYCLQTDSVPLTFGQGTKVEIK = 0.0002
hzKM5321 LV6HV2b antibody (antibody, V domains shown, Humanized; variant human IgG4 constant region (EU S228P, L235E, R409K), human kappa; also called B-24; LV6HV2b) VH: QVHLVQSGPELKKPGASVKISCKASGYTFTNYGMNWVRQAPGQGLEWMGWINTNTGEPTYTEEFKGRFVFSLDTSVTTSYLQISTLKAEDTATYFCARDEGWFVYWGQGTLVTVSS VL: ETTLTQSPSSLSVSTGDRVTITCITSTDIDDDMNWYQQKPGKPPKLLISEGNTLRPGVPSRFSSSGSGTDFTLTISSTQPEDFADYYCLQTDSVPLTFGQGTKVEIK = 0.000239

Now consider a different binder.
Fill in: koff of hzKM5320 LV1aHV0 antibody (antibody, V domains shown, Humanized; variant human IgG4 constant region (EU S228P, L235E, R409K), human kappa; also called A-03) VH: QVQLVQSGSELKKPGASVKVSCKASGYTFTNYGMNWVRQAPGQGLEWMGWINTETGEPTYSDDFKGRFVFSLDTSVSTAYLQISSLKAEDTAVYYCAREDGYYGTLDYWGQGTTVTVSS VL: DVVMTQSPDSLAVSLGERVTINCKASQSVSNDVAWYQQKPGQSPKLLIYYASNRYTGVPDRFSGSGSGTDFTLTISSLQAEDVAVYFCQQDYSSPWTFGQGTKLEIK is ___
0.000829
